Data origin, for the record: paper PMC9482650

targetUnderTest: MAST1, Q9Y2H9
Sequence (Q9Y2H9 962-1065): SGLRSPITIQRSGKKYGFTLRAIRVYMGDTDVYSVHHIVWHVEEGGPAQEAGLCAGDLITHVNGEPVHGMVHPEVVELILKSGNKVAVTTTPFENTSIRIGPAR
assayRemarks: holdup assay
Design: key: below the threshold = too weak to quantify, mostly under pKd 3.1 to 4
runParameters: plain residues with an end cap or a label only (N-terminal biotin on a linker: ado-ado)
Label Satisfied when pKd is at or above 4; anything below gets Not satisfied.

INSERT INTO assay_data (binder, classification) VALUES
  ('AAVENKVTDL [PLXNB1, O43157]', 'Satisfied'),
  ('KRPEMTSSSV [MUC3A, MUC3B, Q02505;Q9H195]', 'Satisfied'),
  ('LESTTVGTSV [KARS1, Q15046]', 'Satisfied'),
  ('PTPDLPQTRV [KLHDC7A, Q5VTJ3]', 'Satisfied'),
  ('ILRKSTTTTV [PRR16, Q569H4]', 'Satisfied'),
  ('NTLNRKTTPV [CACNG8, Q8WXS5]', 'Satisfied'),
  ('DRIQSCLSDA [SBF1, O95248]', 'Not satisfied'),
  ('DTKNYKQTSV [CRIPT, Q9P021]', 'Satisfied'),
  ('EDLEDEWEVI [TECPR2, O15040]', 'Not satisfied'),
  ('EKCGKEFSEF [PRKACA, P17612]', 'Satisfied'),
  ('EPQYQPGENL [SRC, P12931]', 'Satisfied');
